Assay: Pharmacokinetics of migalastat HCl in a Fabry patient with severe renal impairment (P3, 2004-5029; Example 6)
Type: in vivo, human
Conditions: human, plasma, Plasma Migalastat Conc, Fabry patient P3, Feb ′15, 24 h
test-readout: concentration at 24 h (ng/mL)
Numbers only, in ng/mL.

Query: Name the reported concentration at 24 h value associated with the compound OC[C@H]1NC[C@H](O)[C@@H](O)[C@H]1O
Result: 168

###

Assay: Phase 1 single-dose pharmacokinetics and safety study of migalastat HCl in non-Fabry subjects with renal impairment (Example 1, AT1001-015)
Assay type: in vivo, human
Details: human, plasma, po, 150 mg, single oral 150 mg migalastat HCl, non-Fabry subjects, renal function group Mild (N = 8)
test-readout: AUC(0-inf)
Please format your answer as a value with the unit trailing.

Query: Name the reported AUC(0-inf) value associated with the compound OC[C@H]1NC[C@H](O)[C@@H](O)[C@H]1O [migalastat]
Result: 14500 ng·h/mL

###

Assay: Phase 1 single-dose pharmacokinetics and safety study of migalastat HCl in non-Fabry subjects with renal impairment (Example 1, AT1001-015)
Format: in vivo, human
Details: human, plasma, oral, 150 mg, 150 mg dose of migalastat hydrochloride, individuals with normal kidney function; level of quantification; read-out: C48h
test-readout: concentration at 48 h

Query: Name the reported concentration at 48 h value associated with the molecule OC[C@H]1NC[C@H](O)[C@@H](O)[C@H]1O
Result: < 5 ng/mL

###

Assay: Phase 1 single-dose pharmacokinetics and safety study of migalastat HCl in non-Fabry subjects with renal impairment (Example 1, AT1001-015)
Type: in vivo, human
Conditions: human, plasma, oral, 150 mg, AT1001-015; Moderate (CLcr ≥30-<60 mL/min), N 8; read-out: C96 h, Mean
test-readout: concentration at 96 h (ng/mL)
Numbers only, in ng/mL.

Query: Name the reported concentration at 96 h value associated with the compound OC[C@H]1NC[C@H](O)[C@@H](O)[C@H]1O
Result: 16.7

###

Assay: Pharmacokinetics of migalastat HCl in a Fabry patient with severe renal impairment (P3, 2004-5029; Example 6)
Assay type: in vivo, human
Settings: human, plasma, Severe RI Fabry patient 2004-5029 (P3), CLcr 15, 11/17, Q4D regimen; read-out: C48 h
test-readout: concentration at 48 h (ng/mL)
Numbers only, in ng/mL.

Query: Name the reported concentration at 48 h value associated with the molecule OC[C@H]1NC[C@H](O)[C@@H](O)[C@H]1O
Result: 401

###

Test: Pharmacokinetics of migalastat HCl in a Fabry patient with severe renal impairment (P3, 2004-5029; Example 6)
Assay type: in vivo, human
Conditions: human, plasma; Severe RI Fabry patient 2004-5029 (P3), CLcr 21, 5/17, Q4D regimen
test-readout: Cmax
Please format your answer as a value with the unit trailing.

Query: Name the reported Cmax value associated with the molecule OC[C@H]1NC[C@H](O)[C@@H](O)[C@H]1O [migalastat]
Result: 2250 ng/mL

###

Assay: Pharmacokinetics of migalastat HCl in a Fabry patient with severe renal impairment (P3, 2004-5029; Example 6)
Assay type: in vivo, human
Settings: human, plasma, Plasma Migalastat Conc, Fabry patient P3, Aug ′17 (Q4D), 48 h
test-readout: concentration at 48 h (ng/mL)
Answers are plain numbers, in ng/mL.

Query: Name the reported concentration at 48 h value associated with the molecule OC[C@H]1NC[C@H](O)[C@@H](O)[C@H]1O
Result: 130

###

Assay: Phase 1 single-dose pharmacokinetics and safety study of migalastat HCl in non-Fabry subjects with renal impairment (Example 1, AT1001-015)
Type: in vivo, human
Conditions: human, plasma, oral, 150 mg, AT1001-015; Mild (CLcr ≥60-<90 mL/min), N 8; read-out: C48 h, Mean
test-readout: concentration at 48 h
Please format your answer as a value with the unit trailing.

Query: Name the reported concentration at 48 h value associated with the compound OC[C@H]1NC[C@H](O)[C@@H](O)[C@H]1O [migalastat]
Result: 9.34 ng/mL

###

Test: Pharmacokinetics of migalastat HCl in a Fabry patient with severe renal impairment (P3, 2004-5029; Example 6)
Format: in vivo, human
Conditions: human, plasma, Plasma Migalastat Conc, Fabry patient P3, Aug ′15, 24 h
test-readout: concentration at 24 h (ng/mL)
One number for each entry, in ng/mL.

Query: Name the reported concentration at 24 h value associated with the molecule OC[C@H]1NC[C@H](O)[C@@H](O)[C@H]1O [migalastat]
Result: 211

###

Experiment: Pharmacokinetics of migalastat HCl in a Fabry patient with severe renal impairment (P3, 2004-5029; Example 6)
Type: in vivo, human
Settings: human, plasma; Severe RI Fabry patient 2004-5029 (P3), CLcr 21, 5/17, Q4D regimen
test-readout: AUC(0-inf) (ng·h/mL)
Give bare numbers, in ng·h/mL.

Query: Name the reported AUC(0-inf) value associated with the compound OC[C@H]1NC[C@H](O)[C@@H](O)[C@H]1O [migalastat]
Result: 32100

###

Assay: Pharmacokinetics of migalastat HCl in a Fabry patient with severe renal impairment (P3, 2004-5029; Example 6)
Format: in vivo, human
Conditions: human, plasma; Severe RI Fabry patient 2004-5029 (P3), CLcr 21, 5/17, Q4D regimen; read-out: C48 h
test-readout: concentration at 48 h (ng/mL)
Numbers only, in ng/mL.

Query: Name the reported concentration at 48 h value associated with the compound OC[C@H]1NC[C@H](O)[C@@H](O)[C@H]1O
Result: 77.4

###

Assay: Phase 1 single-dose pharmacokinetics and safety study of migalastat HCl in non-Fabry subjects with renal impairment (Example 1, AT1001-015)
Format: in vivo, human
Conditions: human, plasma, oral, 150 mg; AT1001-015; Severe (CLcr ≥15-<30 mL/min), N 8; read-out: C96 h, Mean
Description: The eGFR estimated by the Cockcroft-Gault equation per the FDA Guidance for renal impairment studies. Volunteers were enrolled into two cohorts stratified for renal function calculated using the Cockcroft-Gault equation for creatinine clearance (CLcr). Subjects were assigned to groups based on an estimated CLcr at screening as calculated using the Cockcroft-Gault equation. […]
test-readout: concentration at 96 h (ng/mL)
One number for each entry, in ng/mL.

Query: Name the reported concentration at 96 h value associated with the molecule OC[C@H]1NC[C@H](O)[C@@H](O)[C@H]1O
Result: 105

###

Test: Phase 1 single-dose pharmacokinetics and safety study of migalastat HCl in non-Fabry subjects with renal impairment (Example 1, AT1001-015)
Format: in vivo, human
Conditions: human, plasma, po, 150 mg, single oral 150 mg migalastat HCl, non-Fabry subjects, renal function group Moderate (N = 8)
test-readout: AUC(0-inf) (ng·h/mL)
Give bare numbers, in ng·h/mL.

Query: Name the reported AUC(0-inf) value associated with the compound OC[C@H]1NC[C@H](O)[C@@H](O)[C@H]1O
Result: 22500

###

Test: Pharmacokinetics of migalastat HCl in a Fabry patient with severe renal impairment (P3, 2004-5029; Example 6)
Format: in vivo, human
Conditions: human, plasma, Plasma Migalastat Conc, Fabry patient P3, Feb ′15, 0 h
test-readout: concentration at 0 h
Please format your answer as a value with the unit trailing.

Query: Name the reported concentration at 0 h value associated with the compound OC[C@H]1NC[C@H](O)[C@@H](O)[C@H]1O [migalastat]
Result: 19.9 ng/mL

###

Experiment: Pharmacokinetics of migalastat HCl in a Fabry patient with severe renal impairment (P3, 2004-5029; Example 6)
Format: in vivo, human
Conditions: human, plasma; Severe RI Fabry patient 2004-5029 (P3), CLcr 21, 5/17, Q4D regimen
test-readout: half-life
Please format your answer as a value with the unit trailing.

Query: Name the reported half-life value associated with the compound OC[C@H]1NC[C@H](O)[C@@H](O)[C@H]1O [migalastat]
Result: 13.2 h

###

Experiment: Pharmacokinetics of migalastat HCl in a Fabry patient with severe renal impairment (P3, 2004-5029; Example 6)
Assay type: in vivo, human
Conditions: human, plasma; Severe RI Fabry patient 2004-5029 (P3), CLcr 21, 5/17, Q4D regimen
test-readout: AUC(0-t) (ng·h/mL)
One number for each entry, in ng·h/mL.

Query: Name the reported AUC(0-t) value associated with the molecule OC[C@H]1NC[C@H](O)[C@@H](O)[C@H]1O
Result: 31900

###

Assay: Pharmacokinetics of migalastat HCl in a Fabry patient with severe renal impairment (P3, 2004-5029; Example 6)
Type: in vivo, human
Details: human, plasma, Plasma Migalastat Conc, Fabry patient P3, May ′17 (Q4D), 96 h
test-readout: concentration at 96 h (ng/mL)
One number for each entry, in ng/mL.

Query: Name the reported concentration at 96 h value associated with the compound OC[C@H]1NC[C@H](O)[C@@H](O)[C@H]1O
Result: 18.4

###

Experiment: Pharmacokinetics of migalastat HCl in a Fabry patient with severe renal impairment (P3, 2004-5029; Example 6)
Type: in vivo, human
Conditions: human, plasma, Plasma Migalastat Conc, Fabry patient P3, Nov ′17 (Q4D), 96 h
Protocol: Migalastat levels can be measured via methods known in the art. […] Microcentrifuge tubes containing 100 μl of the tissue homogenate or 50 μl of plasma may then be spiked with 500 ng/mL 13C d2-AT1001 HCl internal standard (manufactured by MDS Pharma Services). A 600 μl volume of 5 mM HCl in 95/5 MeOH:H2O can then be added and the tubes vortexed for 2 minutes, followed by centrifugation at 21000×g for 10 minutes at room temperature. […]
test-readout: concentration at 96 h (ng/mL)
Give bare numbers, in ng/mL.

Query: Name the reported concentration at 96 h value associated with the molecule OC[C@H]1NC[C@H](O)[C@@H](O)[C@H]1O
Result: 86.2
